From: ChEMBL document CHEMBL5550194

system: MCF7; test: Antiproliferative activity against human MCF7 cells assessed as inhibition of cell growth incubated for 72 hrs by MTT assay; assay type: functional, cell-based; conditions: MCF7, 72 h
Here, each record is paired with measured IC50 data.
quantityKind: IC50 (µM)

>  <molecule>
C[C@]12CC[C@H](O)C[C@@H]1CC[C@@H]1[C@@H]2CC[C@]2(C)c3c(cnnc3P(=O)(Nc3ccccc3)Nc3ccccc3)C[C@@H]12

>  <qualifierSymbol>
=

>  <recordedResult>
17

$$$$
>  <molecule>
C[C@]12CCC(Cl)CC1=CC[C@@H]1[C@@H]2CC[C@]2(C)c3c(cnnc3P(=O)(Nc3ccccc3)Nc3ccccc3)C[C@@H]12 (stereo partly specified)

>  <qualifierSymbol>
>

>  <recordedResult>
25

$$$$
>  <molecule>
C[C@]12CC[C@H]3[C@@H](CCC4Cc5c(cnnc5P(=O)(c5ccccc5)c5ccccc5)C[C@@]43C)[C@@H]1CC[C@@H]2O (stereo partly specified)

>  <qualifierSymbol>
=

>  <recordedResult>
7.1

$$$$
>  <molecule>
CC(=O)O[C@H]1CC[C@@]2(C)C(=CC[C@@H]3[C@@H]2CC[C@]2(C)c4c(cnnc4P(=O)(Nc4ccccc4)Nc4ccccc4)C[C@@H]32)C1

>  <qualifierSymbol>
>

>  <recordedResult>
25

$$$$
>  <molecule>
COc1ccc2c(c1)CC[C@@H]1[C@@H]2CC[C@]2(C)c3c(cnnc3P(=O)(NC(C)(C)C)NC(C)(C)C)C[C@@H]12

>  <qualifierSymbol>
=

>  <recordedResult>
12.7

$$$$
>  <molecule>
C[C@]12CC[C@@H]3c4ccc(O)cc4CC[C@H]3[C@@H]1Cc1cnnc(P(=O)(Nc3ccccc3)Nc3ccccc3)c12

>  <qualifierSymbol>
>

>  <recordedResult>
25

$$$$

----------
system: MDA-MB-231; experiment: Antiproliferative activity against human MDA-MB-231 cells assessed as inhibition of cell growth incubated for 72 hrs by MTT assay; assay type: functional, cell-based; settings: MDA-MB-231, 72 h
pIC50: −log10 of the molar value.

>  <molecule>
COc1ccc2c(c1)CC[C@@H]1[C@@H]2CC[C@]2(C)c3c(cnnc3P(=O)(NC(C)(C)C)NC(C)(C)C)C[C@@H]12

>  <qualifierSymbol>
=

>  <pIC50>
4.78

$$$$
>  <molecule>
C[C@]12CCC(=O)C=C1CC[C@@H]1[C@@H]2CC[C@]2(C)c3c(cnnc3P(=O)(Nc3ccccc3)Nc3ccccc3)C[C@@H]12

>  <qualifierSymbol>
=

>  <pIC50>
4.66

$$$$
>  <molecule>
C[C@]12CC[C@@H]3c4ccc(O)cc4CC[C@H]3[C@@H]1Cc1cnnc(P(=O)(c3ccccc3)c3ccccc3)c12

>  <qualifierSymbol>
<

>  <pIC50>
4.60

$$$$
>  <molecule>
CC(C)(C)NP(=O)(NC(C)(C)C)c1nncc2c1[C@@]1(C)CC[C@H]3[C@@H](CC=C4CC(Cl)CC[C@@]43C)[C@@H]1C2 (stereo partly drawn)

>  <qualifierSymbol>
=

>  <pIC50>
4.81

$$$$
>  <molecule>
CC(C)(C)NP(=O)(NC(C)(C)C)c1nncc2c1[C@@]1(C)CC[C@H]3[C@@H](CCC4=CC(=O)CC[C@@]43C)[C@@H]1C2

>  <qualifierSymbol>
=

>  <pIC50>
4.68

$$$$
>  <molecule>
COc1cccc2c1C(=O)c1c(O)c3c(c(O)c1C2=O)C[C@@](O)(C(=O)CO)C[C@@H]3O[C@H]1C[C@H](N)[C@H](O)[C@H](C)O1

>  <qualifierSymbol>
=

>  <pIC50>
6.57

$$$$
>  <molecule>
CC(C)(C)NP(=O)(NC(C)(C)C)c1nncc2c1[C@@]1(C)CC[C@@H]3c4ccc(O)cc4CC[C@H]3[C@@H]1C2

>  <qualifierSymbol>
<

>  <pIC50>
4.60

$$$$
>  <molecule>
CC(C)(C)NP(=O)(NC(C)(C)C)c1nncc2c1CC1CC[C@H]3[C@@H]4CC[C@H](O)[C@@]4(C)CC[C@@H]3[C@@]1(C)C2 (stereo partly drawn)

>  <qualifierSymbol>
<

>  <pIC50>
4.60

$$$$

----------
target: UniProt O75881; experiment: Binding affinity to recombinant human CYP7B1 assessed as substrate-type binding by measuring dissociation constant by spectrophotometric titration method
Sequence (O75881 whole entry): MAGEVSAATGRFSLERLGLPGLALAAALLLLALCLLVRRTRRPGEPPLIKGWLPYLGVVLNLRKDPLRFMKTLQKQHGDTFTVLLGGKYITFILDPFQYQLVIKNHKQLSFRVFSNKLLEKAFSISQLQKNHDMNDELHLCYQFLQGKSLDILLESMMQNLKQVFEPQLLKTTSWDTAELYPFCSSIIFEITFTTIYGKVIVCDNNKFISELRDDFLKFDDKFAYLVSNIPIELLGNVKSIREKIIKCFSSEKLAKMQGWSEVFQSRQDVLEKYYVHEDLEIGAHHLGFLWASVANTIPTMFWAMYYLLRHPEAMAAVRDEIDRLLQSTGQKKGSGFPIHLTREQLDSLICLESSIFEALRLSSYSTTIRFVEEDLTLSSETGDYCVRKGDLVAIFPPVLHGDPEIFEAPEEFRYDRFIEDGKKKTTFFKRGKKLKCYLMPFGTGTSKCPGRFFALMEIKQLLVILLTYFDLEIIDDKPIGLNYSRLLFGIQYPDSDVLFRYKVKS
pKd: −log10 of the molar value.

>  <compound>
CC(C)(C)NP(=O)(NC(C)(C)C)c1nncc2c1CC1CC[C@H]3[C@@H]4CC[C@H](O)[C@@]4(C)CC[C@@H]3[C@@]1(C)C2 (stereo partly specified)

>  <pKd>
5.77

$$$$

----------
Reported values of IC50 at 72 h for individual entries
assay: Cytotoxicity against human THP-1 cells assessed as inhibition of cell growth incubated for 72 hrs by MTT assay; format: toxicity, cell-based
quantityKind: IC50 at 72 h (nM)

>  <compound>
C[C@]12CCC(=O)C=C1CC[C@@H]1[C@@H]2CC[C@]2(C)c3c(cnnc3P(=O)(Nc3ccccc3)Nc3ccccc3)C[C@@H]12

>  <quantityKind>
IC50 at 72 h

>  <resultUnits>
nM

>  <qualifierSymbol>
>

>  <recordedResult>
50000

$$$$
>  <compound>
COc1cccc2c1C(=O)c1c(O)c3c(c(O)c1C2=O)C[C@@](O)(C(=O)CO)C[C@@H]3O[C@H]1C[C@H](N)[C@H](O)[C@H](C)O1 [DOXORUBICIN]

>  <quantityKind>
IC50 at 72 h

>  <resultUnits>
nM

>  <qualifierSymbol>
=

>  <recordedResult>
45

$$$$

----------
tested on: MDA-MB-231; assay: Antiproliferative activity against human MDA-MB-231 cells assessed as inhibition of cell growth incubated for 72 hrs by MTT assay; assay type: functional, cell-based; details: MDA-MB-231, 72 h
Listing: IC50 of selected compounds

>  <compound>
CC(=O)O[C@H]1CC[C@@]2(C)C(=CC[C@@H]3[C@@H]2CC[C@]2(C)c4c(cnnc4P(=O)(c4ccccc4)c4ccccc4)C[C@@H]32)C1

>  <IC50>
17.7 µM

$$$$
>  <compound>
C[C@]12CCC(Cl)CC1=CC[C@@H]1[C@@H]2CC[C@]2(C)c3c(cnnc3P(=O)(Nc3ccccc3)Nc3ccccc3)C[C@@H]12 (stereo partly specified)

>  <IC50>
> 25 µM

$$$$
>  <compound>
CC(C)(C)NP(=O)(NC(C)(C)C)c1nncc2c1[C@@]1(C)CC[C@H]3[C@@H](CC[C@H]4C[C@@H](O)CC[C@@]43C)[C@@H]1C2

>  <IC50>
> 25 µM

$$$$
>  <compound>
CC(C)(C)NP(=O)(NC(C)(C)C)c1nncc2c1[C@@]1(C)CC[C@H]3[C@@H](CC=C4C[C@@H](O)CC[C@@]43C)[C@@H]1C2

>  <IC50>
> 25 µM

$$$$
>  <compound>
C[C@]12CC[C@H]3[C@@H](CCC4Cc5c(cnnc5P(=O)(Nc5ccccc5)Nc5ccccc5)C[C@@]43C)[C@@H]1CC[C@@H]2O (stereo partly specified)

>  <IC50>
16.5 µM

$$$$
>  <compound>
COc1ccc2c(c1)CC[C@@H]1[C@@H]2CC[C@]2(C)c3c(cnnc3P(=O)(Nc3ccccc3)Nc3ccccc3)C[C@@H]12

>  <IC50>
> 25 µM

$$$$

----------
system: MDA-MB-231; assay: Antiproliferative activity against human MDA-MB-231 cells assessed as inhibition of cell growth incubated for 72 hrs by MTT assay; assay type: functional, cell-based; conditions: MDA-MB-231, 72 h
Reported IC50 values for the following compounds.
quantityKind: IC50

>  <entrySmiles>
CC(=O)O[C@H]1CC[C@@]2(C)C(=CC[C@@H]3[C@@H]2CC[C@]2(C)c4c(cnnc4P(=O)(NC(C)(C)C)NC(C)(C)C)C[C@@H]32)C1

>  <quantityKind>
IC50

>  <recordedResult>
> 25 µM

$$$$
>  <entrySmiles>
C[C@]12CC[C@@H]3c4ccc(O)cc4CC[C@H]3[C@@H]1Cc1cnnc(P(=O)(Nc3ccccc3)Nc3ccccc3)c12

>  <quantityKind>
IC50

>  <recordedResult>
> 25 µM

$$$$
>  <entrySmiles>
C[C@]12CC[C@H](O)C[C@@H]1CC[C@@H]1[C@@H]2CC[C@]2(C)c3c(cnnc3P(=O)(Nc3ccccc3)Nc3ccccc3)C[C@@H]12

>  <quantityKind>
IC50

>  <recordedResult>
> 25 µM

$$$$

----------
tested on: MCF7; assay: Antiproliferative activity against human MCF7 cells assessed as inhibition of cell growth incubated for 72 hrs by MTT assay; assay type: functional, cell-based; settings: MCF7, 72 h
pIC50: −log10 of the molar value.
Below, each entry is listed alongside its reported pIC50.
quantityKind: pIC50

>  <compound>
CC(C)(C)NP(=O)(NC(C)(C)C)c1nncc2c1[C@@]1(C)CC[C@H]3[C@@H](CC=C4C[C@@H](O)CC[C@@]43C)[C@@H]1C2

>  <testSystem>
MCF7

>  <quantityKind>
pIC50

>  <qualifierSymbol>
=

>  <recordedResult>
4.61

$$$$
>  <compound>
COc1cccc2c1C(=O)c1c(O)c3c(c(O)c1C2=O)C[C@@](O)(C(=O)CO)C[C@@H]3O[C@H]1C[C@H](N)[C@H](O)[C@H](C)O1 [DOXORUBICIN]

>  <testSystem>
MCF7

>  <quantityKind>
pIC50

>  <qualifierSymbol>
=

>  <recordedResult>
6.55

$$$$
>  <compound>
CC(C)(C)NP(=O)(NC(C)(C)C)c1nncc2c1[C@@]1(C)CC[C@H]3[C@@H](CC=C4CC(Cl)CC[C@@]43C)[C@@H]1C2 (stereo partly specified)

>  <testSystem>
MCF7

>  <quantityKind>
pIC50

>  <qualifierSymbol>
=

>  <recordedResult>
4.95

$$$$
>  <compound>
COc1ccc2c(c1)CC[C@@H]1[C@@H]2CC[C@]2(C)c3c(cnnc3P(=O)(Nc3ccccc3)Nc3ccccc3)C[C@@H]12

>  <testSystem>
MCF7

>  <quantityKind>
pIC50

>  <qualifierSymbol>
<

>  <recordedResult>
4.60

$$$$
>  <compound>
CC(C)(C)NP(=O)(NC(C)(C)C)c1nncc2c1CC1CC[C@H]3[C@@H]4CC[C@H](O)[C@@]4(C)CC[C@@H]3[C@@]1(C)C2 (stereo partly specified)

>  <testSystem>
MCF7

>  <quantityKind>
pIC50

>  <qualifierSymbol>
=

>  <recordedResult>
4.66

$$$$
>  <compound>
C[C@]12CCC(=O)C=C1CC[C@@H]1[C@@H]2CC[C@]2(C)c3c(cnnc3P(=O)(c3ccccc3)c3ccccc3)C[C@@H]12

>  <testSystem>
MCF7

>  <quantityKind>
pIC50

>  <qualifierSymbol>
=

>  <recordedResult>
5.19

$$$$
